Value source: patent US9732075B2

# target entity: human orexin-2 receptor (Homo sapiens (Human), UniProt O43614)
# Sequence (O43614 whole entry): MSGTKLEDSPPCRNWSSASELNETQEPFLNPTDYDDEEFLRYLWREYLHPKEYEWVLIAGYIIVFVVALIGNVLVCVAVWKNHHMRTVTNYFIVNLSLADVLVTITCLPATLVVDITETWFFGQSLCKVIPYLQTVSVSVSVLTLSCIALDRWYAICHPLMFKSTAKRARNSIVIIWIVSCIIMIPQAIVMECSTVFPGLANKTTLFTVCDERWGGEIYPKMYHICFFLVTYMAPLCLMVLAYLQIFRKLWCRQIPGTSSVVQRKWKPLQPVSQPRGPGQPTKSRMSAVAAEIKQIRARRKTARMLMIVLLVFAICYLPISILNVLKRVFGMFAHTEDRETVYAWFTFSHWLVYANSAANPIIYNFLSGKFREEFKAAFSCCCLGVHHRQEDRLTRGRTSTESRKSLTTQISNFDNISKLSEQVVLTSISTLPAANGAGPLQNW
# method description: In vitro assay: intracellular calcium measurements (FLIPR), antagonistic activity
# run conditions: CHO cells expressing human orexin-2 receptor, orexin-A agonist, geometric mean, read-out: IC50 Ox2
pIC50: −log10 of the molar value.
test readout: pIC50

A selection of reference data follows.
C=C1C[C@@H](c2nc3cc(OC)ccc3[nH]2)N(C(=O)c2nc(C)sc2-c2cccc(Cl)c2Cl)C1 | 7.17
CSc1ccc2[nH]c([C@@H]3CCCN3C(=O)c3c(-n4nccn4)ccc(C)c3F)nc2c1 | 7.55

[P] CSc1ccc2nc([C@@H]3CCCN3C(=O)c3cnc(C)nc3-c3ccccc3)[nH]c2c1
[Q] C=C1CN(C(=O)c2nc(C)sc2-c2ccccc2)C(C)(c2nc3cc(OC)ccc3[nH]2)C1 (racemic)
Qu. I'm curious, which of these has a smaller pIC50 number: P or Q ? Kindly state the label of the option you pick.
Ans. Q

[1] CSc1ccc2nc([C@@H]3CCCN3C(=O)c3cncnc3-c3ccc(Br)c(Cl)c3)[nH]c2c1
[2] Cc1ccc(C(=O)N2CCC[C@@]2(C)c2nc3cc(C(F)(F)F)c(Cl)cc3[nH]2)c(-n2nccn2)c1
Qu. Looking only at measured pIC50, which entry is lower, 1 or 2 ? Lab note: record the label of whichever item you select.
Ans. 1

[1] C=C1C[C@@H](c2nc3ccc(Cl)c(C)c3[nH]2)N(C(=O)c2cc(C(F)(F)F)ccc2-n2nccn2)C1
[2] C=C1CC(c2nc3cccc(SC)c3[nH]2)N(C(=O)c2cc(C)sc2-c2ccc(C)c(C)c2)C1 (racemic)
[3] C=C1C[C@@H](c2nc3cc(C(C)(C)C)ccc3[nH]2)N(C(=O)c2c(-n3nccn3)ccc(OC)c2F)C1
[4] COc1cc2nc([C@]3(C)CCCN3C(=O)c3cncnc3-c3ccccc3)[nH]c2cc1OC
[5] C=C1C[C@@H](c2nc3ccc(Cl)c(C)c3[nH]2)N(C(=O)c2nc(C)sc2-c2ccc(OC)nc2)C1
Qu. Sort entries by pIC50 from minimum to maximum value. Provide the labels, sequenced as the question asks.
Ans. 4, 3, 1, 2, 5

[1] C=C1CN(C(=O)c2nc(C)sc2-c2ccc(C)cc2)C(C)(c2nc3cc(OC)ccc3[nH]2)C1 (stereo not drawn)
[2] Cc1c(Cl)ccc2c1nc([C@]1(C)CCCN1C(=O)c1ccccc1-n1nccn1)n2C
Qu. Between the entries labelled 1 and 2 , which has a larger pIC50 value on record? Give the label under which the chosen entry appears.
Ans. 2

[I] COc1ccc(-n2nccn2)c(C(=O)N2C[C@H](OC)C[C@H]2c2nc3ccc(OC)cc3[nH]2)c1
[II] Cc1cccc(-c2nc(C(=O)N3CCC[C@@]3(C)c3nc4c(C)c(Cl)ccc4[nH]3)c(-c3ccc(F)cc3)s2)c1
Qu. Please choose the item with the lower pIC50 value from this pair: I and II Give the chosen item's label as your response.
Ans. II

[I] CO[C@H]1CN(C(=O)c2nc(C)ccc2-n2nccn2)C(C)(c2nc3c(C)c(Cl)ccc3[nH]2)C1 (stereo partly drawn)
[II] Cc1c(Cl)ccc2[nH]c([C@@H]3[C@@H](C)CCN3C(=O)c3cc(F)ccc3-c3ncccn3)nc12
Qu. Could you point out whether the larger pIC50 belongs to I or to II ? Give the label under which the chosen entry appears.
Ans. I

[a] Cc1cc2nc([C@]3(C)CCCN3C(=O)c3ccccc3-c3cccc(F)c3)[nH]c2cc1C
[b] COc1cccc(-c2ccccc2C(=O)N2CCC[C@@]2(C)c2nc3cc(C)c(C)cc3[nH]2)c1
[c] CSc1cccc2nc([C@@H]3CCCN3C(=O)c3cc(Cl)ccc3-n3nccn3)[nH]c12
[d] Cc1cc2[nH]c([C@@H]3[C@@H](C)CCN3C(=O)c3c(F)cccc3-c3cccnc3)nc2cc1Cl
Qu. Sort (4 molecules) by pIC50: min first. Labels, requested order.
Ans. d, b, a, c

[A] Cc1cc(C(=O)N2CCC[C@@]2(C)c2nc3c(C)cc(Br)cc3[nH]2)c(-c2ccccc2)cn1
[B] C=C1C[C@@H](c2nc3ccc(OC)cc3[nH]2)N(C(=O)c2cc(OC)ccc2-n2nccn2)C1
Qu. Given the listed records, identify the one among A and B with higher pIC50. When you have decided, please share the label of that item.
Ans. B
(B: 8.00, A: 7.15)
